assay: Selectivity index, ratio of CC50 for African green monkey Vero cells to IC50 for Plasmodium falciparum HB3 infected in human erythrocytes assessed as reduction in parasite growth; assay type: toxicity, cell-based; settings: read-out: Ratio CC50/IC50
// reported selectivity ratio per item
Please give only the number in your answer, with no unit.

Here is how some compounds turned out for selectivity ratio.
| COMPOUND | selectivity ratio |
| --- | --- |
| CCC[C@H]1C[C@H]2OC(=O)c3c(cc(OC)c(OC)c3O)[C@H]2O1 [MONOCERIN] | 77 |
| CCC[C@H](O)C[C@H]1OC(=O)c2c(cc(OC)c(OC)c2O)[C@H]1OC | 675 |
| CCC[C@H]1C[C@H]2OC(=O)c3c(cc(OC)c(OC)c3OC(C)=O)[C@H]2O1 | 161 |
| COc1cc2c(c(O)c1OC)C(=O)O[C@@H]1C[C@H](C[C@H](C)O)O[C@H]21 | 22 |

Now consider a different compound.
Request: Request the reported selectivity ratio associated with COC(=O)CC[C@H]1C[C@H]2OC(=O)c3c(cc(OC)c(OC)c3O)[C@H]2O1
Result: 41
